System: HepG2-TUBA1B-RELA
Assay: phenotypically active (imaging signature differs from DMSO and reproducible) at any of 0.3-9 uM (binary (1 = active, 0 = inactive)); higher = active
Conditions: treatment time: 24 h
Where a name gives a salt, the structure may show the parent alone.
Possible outcomes: YES = active, NO = inactive

INSERT INTO results (compound, label_class) VALUES
  ('COc1ccc(CCc2nc3cc(-c4c(C)noc4C)ccc3n2C[C@H](C)N2CCOCC2)cc1Cl', 'YES'),
  ('CCCCN1C[C@H](O)[C@@H](O)[C@H](O)[C@H]1CO [Miglustat hydrochloride]', 'NO'),
  ('O=C(O)/C(Cc1ccccc1[N+](=O)[O-])=N\Nc1nc(-c2ccc(Cl)c(Cl)c2)cs1', 'NO'),
  ('CC1Cc2ccccc2N1NC(=O)c1ccc(Cl)c(S(N)(=O)=O)c1 (stereo unspecified) [indapamide]', 'NO'),
  ('O=C(Nc1nc2cc(C(F)(F)F)cc(NC3CC3)n2n1)c1cccnc1', 'YES'),
  ('CC(=O)S[C@@H]1CC2=CC(=O)CC[C@]2(C)[C@H]2CC[C@@]3(C)[C@@H](CC[C@@]34CCC(=O)O4)[C@H]12', 'NO'),
  ('COc1c(C=O)c(O)cc2c1C(=O)c1ccccc1C2=O', 'NO'),
  ('CC(C)(C)NC[C@H](O)c1ccc(O)c(CO)c1', 'NO'),
  ('CCOP(=O)(OCC)C(=Cc1cc(C(C)(C)C)c(O)c(C(C)(C)C)c1)P(=O)(OCC)OCC', 'NO'),
  ('CNC1CCC2(C)C(=CCC3C2CCC24CN(C)C(C)C2CCC34)C1 (stereo unspecified)', 'YES'),
  ('CC(=O)OC(C)C[N+](C)(C)C (stereo unspecified)', 'NO'),
  ('O=C(c1cccc(Cl)c1F)N1CCN(Cc2cccc(Nc3nccs3)n2)CC1', 'YES'),
  ('O=C(O)CCN(O)C(=O)CCCCCCCCC1CC1', 'NO'),
  ('O=C1N[C@@H]2[C@@H](O)[C@@H](O)[C@H](O)[C@@H](CO)N2C1=O', 'NO'),
  ('CC[C@H]1OC(=O)[C@H](C)[C@@H](O[C@H]2C[C@@](C)(OC)[C@@H](O)[C@H](C)O2)[C@H](C)[C@@H](O[C@@H]2O[C@H](C)C[C@H](N(C)C)[C@H]2O)[C@](C)(O)C[C@@H](C)C(=O)[C@H](C)[C@@H](O)[C@]1(C)O', 'NO'),
  ('COc1ccc(-c2cnc(-c3cccc4c3-c3ccccc3C4=O)o2)cc1', 'NO');

====

Here, each record is paired with measured phenotypically active data.
System: A549-TUBA1B-RELA
Assay: phenotypically active (imaging signature differs from DMSO and reproducible) at any of 0.3-9 uM (binary (1 = active, 0 = inactive)); higher = active
Details: treatment time: 24 h
property-label: phenotypically active

INSERT INTO results (compound, property_label, experimental_result) VALUES
  ('Cc1cn(CCN2CCN(c3ccccc3-c3cc(C#N)cc(C(=O)NCCCN4CCCC4)c3)CC2)c2ccccc12', 'phenotypically active', 1),
  ('CN1CCc2cccc3c2[C@H]1Cc1ccc(O)c(O)c1-3 [r(-)-apomorphine]', 'phenotypically active', 1),
  ('CNC(=O)c1cc(Oc2ccc(NC(=O)Nc3ccc(Cl)c(C(F)(F)F)c3)c(F)c2)ccn1 [regorafenib]', 'phenotypically active', 0),
  ('COc1cc2ncnc(Nc3ccc(O)c(Br)c3)c2cc1OC', 'phenotypically active', 1),
  ('C[N+](C)(C)CC[N+]1(C)Cc2c(Cl)c(Cl)c(Cl)c(Cl)c2C1 [Chlorisondamine diiodide]', 'phenotypically active', 0);

====

Here, each record is paired with measured lowest phenotypically active concentration data.
System: HepG2-GM130-SQSTM1
Test: lowest phenotypically active concentration; higher = less potent
Details: treatment time: 24 h
property-label: lowest phenotypically active concentration

INSERT INTO results (molecule, experimental_result) VALUES
  ('Cc1ccc(C(=O)N(CCCN)[C@@H](c2nc3cc(Cl)ccc3c(=O)n2Cc2ccccc2)C(C)C)cc1 [Ispinesib]', '≤ 0.3 µM'),
  ('Cn1cnc2c(F)c(Nc3ccc(Br)cc3Cl)c(C(=O)NOCCO)cc21 [selumetinib]', '≤ 0.3 µM'),
  ('COc1ccc(-c2ccc3ncc4c(c3c2)n(-c2ccc(N3CCNCC3)c(C(F)(F)F)c2)c(=O)n4C)cn1', '≤ 0.3 µM');

====

System: WPMY1-ACTB-RAB5A
Assay: phenotypically active (imaging signature differs from DMSO and reproducible) at any of 0.3-9 uM (binary (1 = active, 0 = inactive)); higher = active
Conditions: treatment time: 24 h
Possible outcomes: YES (active), NO (inactive)

INSERT INTO measurements (compound, experimental_target, label_class) VALUES
  ('CO[C@H]1C=CO[C@@]2(C)Oc3c(C)c(O)c4c(O)c(c5c(nc6cc(C)ccn65)c4c3C2=O)NC(=O)C(C)=CC=C[C@H](C)[C@H](O)[C@@H](C)[C@@H](O)[C@@H](C)[C@H](OC(C)=O)[C@@H]1C', 'WPMY1-ACTB-RAB5A', 'NO'),
  ('Cc1cc(Nc2ccc(NC(=O)c3ccc(Nc4ccnc5ccccc45)cc3)cc2)nc(N)n1', 'WPMY1-ACTB-RAB5A', 'YES'),
  ('Nc1ncnc2c1cnn2-c1ccccc1', 'WPMY1-ACTB-RAB5A', 'NO'),
  ('CN/C(=C/[N+](=O)[O-])NCCSCc1csc(CN(C)C)n1', 'WPMY1-ACTB-RAB5A', 'NO'),
  ('O=C(O)c1cc(/N=N/c2ccc(O)c(C(=O)O)c2)ccc1O', 'WPMY1-ACTB-RAB5A', 'NO'),
  ('COc1cc2c(N3CCN(C(=O)Nc4ccc(OC(C)C)cc4)CC3)ncnc2cc1OCCCN1CCCCC1', 'WPMY1-ACTB-RAB5A', 'YES'),
  ('O=C(NCCCNc1nc(Nc2cccc(NC(=O)N3CCCC3)c2)ncc1I)c1cccs1', 'WPMY1-ACTB-RAB5A', 'YES'),
  ('Cc1ccc(-c2csc3ncnc(SCCC(=O)O)c23)cc1', 'WPMY1-ACTB-RAB5A', 'NO');
